Source of measurements: patent US20100184094A1

- TARGET_ENTITY: human NPC1L1 (Homo sapiens, UniProt Q9UHC9)
- Sequence (Q9UHC9 22-1359): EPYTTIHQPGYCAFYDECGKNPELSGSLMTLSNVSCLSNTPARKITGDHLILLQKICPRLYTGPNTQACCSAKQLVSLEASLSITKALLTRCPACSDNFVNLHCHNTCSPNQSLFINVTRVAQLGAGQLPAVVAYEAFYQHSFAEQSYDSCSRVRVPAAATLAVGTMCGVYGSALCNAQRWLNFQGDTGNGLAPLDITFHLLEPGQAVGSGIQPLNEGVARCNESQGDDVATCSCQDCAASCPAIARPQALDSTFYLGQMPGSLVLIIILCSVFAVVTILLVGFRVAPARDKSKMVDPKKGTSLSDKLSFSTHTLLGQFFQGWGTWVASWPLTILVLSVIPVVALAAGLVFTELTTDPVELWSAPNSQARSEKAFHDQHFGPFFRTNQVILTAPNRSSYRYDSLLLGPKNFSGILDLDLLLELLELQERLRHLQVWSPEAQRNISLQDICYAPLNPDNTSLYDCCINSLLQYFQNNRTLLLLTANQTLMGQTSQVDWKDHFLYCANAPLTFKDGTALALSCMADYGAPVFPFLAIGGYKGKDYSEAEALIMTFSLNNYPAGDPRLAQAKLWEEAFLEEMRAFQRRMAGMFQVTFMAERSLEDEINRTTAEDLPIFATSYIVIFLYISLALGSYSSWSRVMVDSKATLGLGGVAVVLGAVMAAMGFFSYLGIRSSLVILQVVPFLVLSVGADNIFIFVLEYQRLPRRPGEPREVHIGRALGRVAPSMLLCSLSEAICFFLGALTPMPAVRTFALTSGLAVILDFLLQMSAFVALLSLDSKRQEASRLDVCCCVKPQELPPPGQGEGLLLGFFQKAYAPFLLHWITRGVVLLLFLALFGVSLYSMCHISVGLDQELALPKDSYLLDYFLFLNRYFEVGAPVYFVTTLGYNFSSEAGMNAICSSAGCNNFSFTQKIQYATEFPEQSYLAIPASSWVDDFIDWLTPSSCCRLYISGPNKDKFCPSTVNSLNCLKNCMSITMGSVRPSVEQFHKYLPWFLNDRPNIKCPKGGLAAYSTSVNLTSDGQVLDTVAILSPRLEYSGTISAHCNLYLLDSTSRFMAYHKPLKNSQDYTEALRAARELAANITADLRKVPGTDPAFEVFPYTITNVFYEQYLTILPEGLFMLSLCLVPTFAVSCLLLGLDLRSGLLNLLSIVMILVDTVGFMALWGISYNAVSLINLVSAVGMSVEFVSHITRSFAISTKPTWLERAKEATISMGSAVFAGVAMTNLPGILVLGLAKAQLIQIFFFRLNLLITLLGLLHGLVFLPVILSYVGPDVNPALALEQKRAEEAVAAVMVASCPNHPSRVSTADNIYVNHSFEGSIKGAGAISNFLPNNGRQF
REPORTED_ENDPOINT: Ki (nM)

{"columns": ["COMPOUND", "REPORTED_ENDPOINT", "QUAL", "VALUE_REPORTED"],
 "data": [
  ["O=C1[C@H](CC[C@H](O)c2ccc(F)cc2)[C@@H](c2ccc(O)cc2)N1c1ccc(F)cc1", "Ki", "=", 1300],
  ["COC(=O)[C@H]1O[C@@H](Oc2ccc([C@@H]3[C@@H](CC[C@H](O)c4ccc(F)cc4)C(=O)N3c3ccc(C#CCNS(C)(=O)=O)cc3)cc2)[C@H](O)[C@@H](O)[C@@H]1O", "Ki", "=", 5],
  ["O=C(O)C1OC(Oc2ccc(C3C(CCC(O)c4ccc(F)cc4)C(=O)N3c3ccc(F)cc3)cc2)C(O)C(O)C1O (single isomer, unassigned; ent-1)", "Ki", ">", 100000],
  ["O=C(O)[C@H]1O[C@@H](Oc2ccc([C@@H]3[C@@H](CC[C@H](O)c4ccc(F)cc4)C(=O)N3c3ccc(F)cc3)cc2)[C@H](O)[C@@H](O)[C@@H]1O [EZE-gluc, ezetimibe glucuronide]", "Ki", "=", 209]
]}
